- SYSTEM: Angiotensin-converting enzyme (ACE1)
- EXPERIMENT_DESCRIPTION: Concentration required for 50% inhibition of Angiotensin I converting enzyme
READOUT_NAME: IC50 (µM)
The reply should contain only the number, in µM.

Answered examples (6):
>>> print(df.to_string())
                                   compound  readout_name  obs_value
0  CC(=O)SCC1CCCN(C(C)C(=O)O)C1=O (configuration not stated)          IC50         35
1  CC(=O)SCC1CCCN(CC(=O)O)C1=O (configuration not stated)          IC50        100
2  O=C(O)CN1CCC(CS)C1=O (configuration not stated)          IC50        3.7
3  O=C(O)CN1CCCC(CS)C1=O (configuration not stated)          IC50          1
4  CC(=O)SCC1CCN(CC(=O)O)C1=O (configuration not stated)          IC50         33
5  CC(=O)SCC1CCCN(C(C(=O)O)c2ccccc2)C1=O (configuration not stated)          IC50         19

Now examine the next entry.
Input: # get_value(readout='IC50', item= CCCC(C(=O)O)N1CCCC(CSC(C)=O)C1=O (configuration not stated) )
Output: 30
